- System: SU-DHL10
- measurement.notes: Antiproliferative activity against human SU-DHL-10 cells assessed as cell growth inhibition measured after 72 hrs by MTT assay
- Format: functional, cell-based
- assay.conditions: SU-DHL10, 72 h
Measured IC50 values are reported for all entries that follow.
Hi! Could you send only the number? It should be in nM, unit omitted.

- COc1ccc(Cn2cc3c(c2-c2cc(OC)c(OC)c(OC)c2)CCCc2cnoc2-3)cc1: 1800

Then there is this molecule:
Ask: Please look up its IC50: COc1ccc(Cn2cc3c(c2-c2cc(OC)c(OC)c(OC)c2)CCCc2cnoc2-3)cc1N
Reply: 500

* * *

- measurement.notes: Cytotoxicity against PHA-induced human PBL cells assessed as inhibition of cell growth measured after 72 hrs by MTT assay
- Format: toxicity, cell-based
- assay.conditions: PHA-induced human peripheral blood lymphocytes (PBL)
property: IC50 at 72 h

• COc1ccc(Cn2cc3c(c2-c2cc(OC)c(OC)c(OC)c2)CCCc2cnoc2-3)cc1N = > 10 µM

Ask: Please look up its IC50 at 72 h: COc1ccc(Cn2cc3c(c2-c2ccccc2)CCCc2cnoc2-3)cc1
Reply: > 10 µM

Ask: What do we get for COc1ccc(Cn2cc3c(c2-c2cc(OC)c(OC)c(OC)c2)CCCc2cnoc2-3)cc1 ?
Reply: > 10 µM

* * *

- measured.target: Tubulin
- measurement.notes: Inhibition of tubulin assembly (unknown origin)
property: IC50 (µM)
Hi! Could you send only the number? It should be in µM, unit omitted.

Reference set (2 entries):
* COc1ccc(Cn2cc3c(c2-c2cc(OC)c(OC)c(OC)c2)CCCc2cnoc2-3)cc1N | 18
* COc1ccc(Cn2cc3c(c2-c2ccccc2)CCCc2cnoc2-3)cc1 | 1.1

Then there is this molecule:
Ask: Provide the documented IC50 with Tubulin as the system for COc1ccc(Cn2cc3c(c2-c2ccc(OC)cc2)CCCc2cnoc2-3)cc1
Reply: 4.6
